The reported measurements were obtained from patent US20250002453A1.

# experimental.protocol: Dynamic solubility test (water, SGF, FaSSIF, FeSSIF; 37° C.; 1, 4 and 24 hours)
# Format: physicochemical
# cond: SGF, 37° C., 12 hrs
measured.endpoint: pH (of filtrate)

Would you please look over these solved cases?
CCCCCCCC(=O)N[C@H](CN1CCCC1)[C@H](O)c1ccc2c(c1)OCCO2.CCCCCCCC(=O)N[C@H](CN1CCCC1)[C@H](O)c1ccc2c(c1)OCCO2.O=C(O)C(=O)O [Crystalline form A of oxalate] ... 2.05
CCCCCCCC(=O)N[C@H](CN1CCCC1)[C@H](O)c1ccc2c(c1)OCCO2.CCCCCCCC(=O)N[C@H](CN1CCCC1)[C@H](O)c1ccc2c(c1)OCCO2.O=S(=O)(O)c1cccc2c(S(=O)(=O)O)cccc12 ... 1.77

(1) CCCCCCCC(=O)N[C@H](CN1CCCC1)[C@H](O)c1ccc2c(c1)OCCO2 [Free crystalline form A, reference compound]
(2) CCCCCCCC(=O)N[C@H](CN1CCCC1)[C@H](O)c1ccc2c(c1)OCCO2.CCCCCCCC(=O)N[C@H](CN1CCCC1)[C@H](O)c1ccc2c(c1)OCCO2.O.O.O=S(=O)(O)c1cccc2c(S(=O)(=O)O)cccc12
**Q:** API: POST /compare with 1 and 2 ; response names the item with higher pH (of filtrate). Label of pick, please.
**A:** 1
(1: 7.30, 2: 1.89)
